Experiment: log P by HPLC-MS
Format: physicochemical
readout_type: chromatographic logP

* COC(=O)c1ccc(F)c(-c2nc3cc(C(F)(F)F)nnc3n2C)n1 | 2.09
* Cn1c(-c2nc(Br)ccc2F)nc2cc(C(F)(F)F)ncc21 | 2.51
* Cn1c(-c2nc(Br)ccc2F)nc2cc(C(F)(F)F)nnc21 | 2.58
* Cn1c(-c2nc(Cl)ccc2F)nc2cc(C(F)(F)F)nnc21 | 2.46
* COC(=O)c1ccc(F)c(-c2nc3cc(C(F)(F)F)ncc3n2C)n1 | 2.03
* Cn1cnc2cc(C(F)(F)F)nnc21 | 0.95
* Cn1c(-c2nc(Cl)ccc2F)nc2cc(C(F)(F)F)ncc21 | 2.38

Data credit: patent US10875858B2
